Cited source for all entries: patent US20240091328A1

# Tested on: IFN-γ
# protocol_details: In vivo peptide micro-library screening, IFN-γ ELISA of re-stimulated splenocytes relative to A5
# Parameters: species or system mice
# study_conditions: rank among 100 micro-library peptides; IFN-γ on re-stimulation relative to A5; 5 peptides plus A5 with CPQ
The following substances are shown together with reported Experimental rank values.
recorded_metric: Experimental rank

substance="H6-PYLTALDDL-ERR (HHHHHHPYLTALDDLERR; CT28)" reported_result=82
substance="H6-FFMKMASKF-ERR (HHHHHHFFMKMASKFERR; CT73)" reported_result=78
substance="H6-PYFRLEHYL-ERR (HHHHHHPYFRLEHYLERR; CT27)" reported_result=87
substance="H6-KLLASALST-ERR (HHHHHHKLLASALSTERR; CT39*)" reported_result=5
substance="H6-LLYNAVVWL-ERR (HHHHHHLLYNAVVWLERR; CT93)" reported_result=27
substance="H6-HHTMMVQAI-ERR (HHHHHHHHTMMVQAIERR; CT24)" reported_result=86
substance="H6-EGPHGQPVS-ERR (HHHHHHEGPHGQPVSERR; CT54)" reported_result=57
substance="H6-PGPIKCVPI-ERR (HHHHHHPGPIKCVPIERR; CT3)" reported_result=22
substance="H6-SYTEQNVKL-ERR (HHHHHHSYTEQNVKLERR; CT30)" reported_result=85
substance="H6-SPKALAHNG-ERR (HHHHHHSPKALAHNGERR; CT37*)" reported_result=1
substance="H6-LVPNRFSRL-ERR (HHHHHHLVPNRFSRLERR; CT45)" reported_result=13
substance="H6-SYLRRLPGL-ERR (HHHHHHSYLRRLPGLERR; CT35)" reported_result=100
substance="H6-TPHVLWSWG-ERR (HHHHHHTPHVLWSWGERR; CT97)" reported_result=4
substance="H6-KGPYWLEVK-ERR (HHHHHHKGPYWLEVKERR; CT44)" reported_result=44
substance="H6-SFQPTADEL-ERR (HHHHHHSFQPTADELERR; CT62)" reported_result=11
substance="H6-GPPPHSAPC-ERR (HHHHHHGPPPHSAPCERR; H6 and ERR flanks; CT47)" reported_result=71
substance="H6-RGGPKKCAL-ERR (HHHHHHRGGPKKCALERR; CT53)" reported_result=32
substance="H6-TY AIALINV-ERR (HHHHHHTYAIALINVERR; CT70)" reported_result=29
substance="H6-QFPSESEFF-ERR (HHHHHHQFPSESEFFERR; CT5)" reported_result=18
substance="H6-PTPRRFSPP-ERR (HHHHHHPTPRRFSPPERR; CT52)" reported_result=24
substance="H6-GFPSPLGGI-ERR (HHHHHHGFPSPLGGIERR; CT58)" reported_result=42
substance="H6-IYSRTTDVL-ERR (HHHHHHIYSRTTDVLERR; CT76)" reported_result=64

====

The following substances are shown together with reported Experimental rank values.
# Tested on: IFN-γ
# protocol_details: In vivo peptide micro-library screening, IFN-γ ELISA of re-stimulated splenocytes relative to A5
# Design: species or system mice
# study_conditions: rank among 100 micro-library peptides; IFN-γ on re-stimulation relative to A5; 5 peptides plus A5 with CPQ
recorded_metric: Experimental rank

substance="H6-SGPSYATYL-ERR (HHHHHHSGPSYATYLERR; CT1)" reported_result=62
substance="H6-FYTSYLRRL-ERR (HHHHHHFYTSYLRRLERR; CT74)" reported_result=76
substance="H6-VVLETFYDL-ERR (HHHHHHVVLETFYDLERR; CT19)" reported_result=56
substance="H6-EPQVEPLDF-ERR (HHHHHHEPQVEPLDFERR; CT15)" reported_result=81
substance="H6-FPSESEFFK-ERR (HHHHHHFPSESEFFKERR; CT83)" reported_result=26
substance="H6-EYEKIEIPI-ERR (HHHHHHEYEKIEIPIERR; CT68)" reported_result=66
substance="H6-KYFQAGKYE-ERR (HHHHHHKYFQAGKYEERR; CT69)" reported_result=21
substance="H6-IPIFHILNT-ERR (HHHHHHIPIFHILNTERR; CT85)" reported_result=8
substance="H6-WGAWLSGAL-ERR (HHHHHHWGAWLSGALERR; CT42)" reported_result=28
substance="H6-YVYEIYMTF-ERR (HHHHHHYVYEIYMTFERR; CT98)" reported_result=9
substance="H6-TYWKGNPEM-ERR (HHHHHHTYWKGNPEMERR; CT31)" reported_result=97
substance="H6-SYQAALAEN-ERR (HHHHHHSYQAALAENERR; CT77)" reported_result=39
substance="H6-LFVTVLEVI-ERR (HHHHHHLFVTVLEVIERR; CT26)" reported_result=91
substance="H6-SRLQSLTLI-ERR (HHHHHHSRLQSLTLIERR; CT72)" reported_result=7
substance="H6-GPPGGFQEF-ERR [CT99] (HHHHHHGPPGGFQEFERR; CT99)" reported_result=53
substance="H6-KYYAVNFSM-ERR [CT95] (HHHHHHKYYAVNFSMERR; CT95)" reported_result=59
substance="H6-LYLANLRHM-ERR (HHHHHHLYLANLRHMERR; CT64)" reported_result=14
substance="H6-SYETLKKSL-ERR (HHHHHHSYETLKKSLERR; CT7)" reported_result=94
substance="H6-PGGFQEFNF-ERR (HHHHHHPGGFQEFNFERR; CT89)" reported_result=25
substance="H6-RHNTMLKAM-ERR (HHHHHHRHNTMLKAMERR; CT66)" reported_result=61
substance="H6-RTPHVLWSW-ERR (HHHHHHRTPHVLWSWERR; CT41)" reported_result=40
substance="H6-SYIKKLKEL-ERR (HHHHHHSYIKKLKELERR; CT29)" reported_result=90

====

# Tested on: IFN-γ
# protocol_details: In vivo peptide micro-library screening, IFN-γ ELISA of re-stimulated splenocytes relative to A5
# Set-up: species or system mice
# study_conditions: rank among 100 micro-library peptides; IFN-γ on re-stimulation relative to A5; 5 peptides plus A5 with CPQ
# Method: Mice were immunized with 5 library peptides at a time, along with the A5 peptide, with all peptides combined and admixed with CPQ. After two intramuscular injections, splenocytes were collected, and then re-stimulated with each of the synthetic micro-library peptides, individually. Production of IFN-γ was measured and peptide immunogenicity was determined relative to the A5 peptide, which served as in internal control that could induce strong Ag-specific CD8^+ T cell responses. […]
recorded_metric: Experimental rank

substance="H6-LNYPHITNL-ERR (HHHHHHLNYPHITNLERR; CT81)" recorded_metric="Experimental rank" reported_result=54
substance="H6-YYESDEFTV-ERR (HHHHHHYYESDEFTVERR; CT65)" recorded_metric="Experimental rank" reported_result=17
substance="H6-PPQNMFEFP-ERR (HHHHHHPPQNMFEFPERR; CT82)" recorded_metric="Experimental rank" reported_result=67
substance="H6-HYLNDGDAI-ERR (HHHHHHHYLNDGDAIERR; H6 and ERR flanks; CT25)" recorded_metric="Experimental rank" reported_result=80
substance="H6-GHVAAGGAL-ERR (HHHHHHGHVAAGGALERR; CT79)" recorded_metric="Experimental rank" reported_result=46
substance="H6-NALSSMGAL-ERR (HHHHHHNALSSMGALERR; CT40*)" recorded_metric="Experimental rank" reported_result=6
substance="H6-DPQFAENYV-ERR (HHHHHHDPQFAENYVERR; CT94)" recorded_metric="Experimental rank" reported_result=55
substance="H6-AYVNAIEKI-ERR (HHHHHHAYVNAIEKIERR; CT12)" recorded_metric="Experimental rank" reported_result=93
substance="H6-RGPPPHSAP-ERR (HHHHHHRGPPPHSAPERR; H6 and ERR flanks; CT46)" recorded_metric="Experimental rank" reported_result=72
substance="H6-TGPYVMMIG-ERR (HHHHHHTGPYVMMIGERR; CT6)" recorded_metric="Experimental rank" reported_result=84
substance="H6-YGKGVNFYL-ERR (HHHHHHYGKGVNFYLERR; CT50)" recorded_metric="Experimental rank" reported_result=68
substance="H6-DSPNRRFTE-ERR (HHHHHHDSPNRRFTEERR; CT60)" recorded_metric="Experimental rank" reported_result=20
substance="H6-SYTSYIMAI-ERR (HHHHHHSYTSYIMAIERR; CT10)" recorded_metric="Experimental rank" reported_result=69
substance="H6-NPRAMQVLL-ERR (HHHHHHNPRAMQVLLERR; CT20)" recorded_metric="Experimental rank" reported_result=38
substance="H6-TPPSHKLPL-ERR (HHHHHHTPPSHKLPLERR; CT55)" recorded_metric="Experimental rank" reported_result=23
substance="H6-SPNRRFTEM-ERR (HHHHHHSPNRRFTEMERR; CT17)" recorded_metric="Experimental rank" reported_result=58
substance="H6-SYATYLQPA-ERR (HHHHHHSYATYLQPAERR; CT63)" recorded_metric="Experimental rank" reported_result=19
substance="H6-RYWTGIGVL-ERR (HHHHHHRYWTGIGVLERR; CT11)" recorded_metric="Experimental rank" reported_result=92
substance="H6-TALPVGFSL-ERR (HHHHHHTALPVGFSLERR; CT90)" recorded_metric="Experimental rank" reported_result=79
substance="H6-MLARKQFDL-ERR (HHHHHHMLARKQFDLERR; CT86)" recorded_metric="Experimental rank" reported_result=60
substance="H6-LGYRYWTGI-ERR (HHHHHHLGYRYWTGIERR; CT92)" recorded_metric="Experimental rank" reported_result=41
substance="H6-VYFTINVNL-ERR (HHHHHHVYFTINVNLERR; CT32)" recorded_metric="Experimental rank" reported_result=43
